Entry source: paper PMC5607274

Target: human recombinant Yes [a.a. 2–543 (end)] (Homo sapiens)
Construct: human recombinant Yes [a.a; 2–543 (end)]; purchased BPS Bioscience 40488
Sequence (P07947 2-543): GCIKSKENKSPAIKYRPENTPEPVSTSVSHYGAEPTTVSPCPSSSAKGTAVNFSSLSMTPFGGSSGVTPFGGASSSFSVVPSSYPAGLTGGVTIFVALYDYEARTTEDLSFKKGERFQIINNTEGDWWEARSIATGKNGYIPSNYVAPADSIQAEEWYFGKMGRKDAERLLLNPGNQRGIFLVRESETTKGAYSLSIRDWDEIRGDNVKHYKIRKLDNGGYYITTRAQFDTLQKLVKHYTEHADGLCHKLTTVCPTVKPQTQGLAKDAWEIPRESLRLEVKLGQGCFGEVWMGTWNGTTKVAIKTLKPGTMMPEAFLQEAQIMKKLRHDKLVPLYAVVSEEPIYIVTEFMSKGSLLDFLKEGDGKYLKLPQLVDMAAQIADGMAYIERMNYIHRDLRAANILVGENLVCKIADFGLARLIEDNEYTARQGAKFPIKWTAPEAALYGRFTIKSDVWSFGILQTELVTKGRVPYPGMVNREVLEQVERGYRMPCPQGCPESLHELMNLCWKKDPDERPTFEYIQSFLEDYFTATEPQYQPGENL
Experiment: ADP-Glo kinase assay, inhibition rates of Yes phosphorylation activity (first and second screening)
Assay type: biochemical
Conditions: first screening; mean of n = 4 wells; 10 μmol L−1 compound
# maps each entry to its First screening IR (inhibition rate)
Report as a plain number; the unit % is understood.

Before answering, review these 3 worked examples.
Cc1n[nH]c(C)c1S(=O)(=O)Nc1cccc(/C=C/c2ccccn2)c1
36
CC(NS(=O)(=O)c1ccc(C(C)(C)C)cc1)c1ccc(-n2ccnc2)cc1 (stereo not shown)
12
COc1cc(C(=O)NCCc2ccc(-n3cccn3)cc2)ccc1C
3

The observed First screening IR (inhibition rate) for NC(=O)C(c1ccccc1)N1CCC(CCc2ccc(O)cc2)CC1 (stereo not shown) when tested with human recombinant Yes [a.a. 2–543 (end)] (Homo sapiens) stands at -19

----------
# maps each entry to its First screening IR (inhibition rate)
Molecular target: human recombinant Yes [a.a. 2–543 (end)] (Homo sapiens)
Construct: human recombinant Yes [a.a; 2–543 (end)]; purchased BPS Bioscience 40488
Experiment: ADP-Glo kinase assay, inhibition rates of Yes phosphorylation activity (first and second screening)
Assay type: biochemical
Conditions: first screening; mean of n = 4 wells; 10 μmol L−1 compound
Procedure: All inhibitory assays of the phosphorylation activity of Yes were performed in accordance with the Promega Technical Manual for the ADP-Glo™ Kinase Assay (Fitchburg, WI, USA. Catalog number: V9102). The human recombinant Yes [a.a. […] The screening was conducted in three steps consisting of the first screening, the second screening, and the IC50 determination, as can be illustrated in Fig. 1b. First, we determined the inhibition rates of the 1,991 compounds. […]
Report as a plain number; the unit % is understood.

Before answering, review these 3 worked examples.
Cc1c(C(=O)NCCOc2ccccc2)[nH]c2c1C(=O)CCC2 [Compound Z51800409]
4
Cc1ccc(-c2nn3c(=O)c4c(-c5cccs5)csc4nc3c3ccccc23)cc1 [Compound Z55164116]
24
O=C(O)c1c2c(nc3ccccc13)/C(=C\c1ccc(Cl)c(Cl)c1)CCC2 [Compound Z46035759]
0

GET /value?item= Cc1oc(C)c(S(N)(=O)=O)c1C(=O)N1CCN(Cc2c(F)cccc2Cl)CC1 [Compound Z466082788] &field=First screening IR (inhibition rate) returns -3

GET /value?item= Cc1cnc(C(=O)Nc2ccc3nc(-c4ccc(F)cc4)[nH]c3c2)cn1 [Compound Z651750688] &field=First screening IR (inhibition rate) returns -2

GET /value?item= Cc1ccccc1/C=C1/CC(C)Cc2c1nc1ccccc1c2C(=O)O (centres unmarked) [Compound Z46107859] &field=First screening IR (inhibition rate) returns -3

GET /value?item= CN1CCc2nc(NC(=O)CCC(=O)c3ccccc3)sc2C1 [Compound Z54410536] &field=First screening IR (inhibition rate) returns -2

GET /value?item= O=C(COC(=O)c1ccco1)Nc1nc2ccc([N+](=O)[O-])cc2s1 [Compound Z85929771] &field=First screening IR (inhibition rate) returns 10

----------
Target: human recombinant Yes [a.a. 2–543 (end)] (Homo sapiens)
Construct: human recombinant Yes [a.a; 2–543 (end)]; purchased BPS Bioscience 40488
Assay: ADP-Glo kinase assay, inhibition rates of Yes phosphorylation activity (first and second screening)
Format: biochemical
Conditions: first screening; mean of n = 4 wells; 10 μmol L−1 compound
Endpoint name: First screening IR (inhibition rate) (%)
Report as a plain number; the unit % is understood.

Before answering, review these 2 worked examples.
COc1cccc(OCCN2CCN(c3cc(C)nc4c(-c5ccc(Cl)cc5)c(C)nn34)CC2)c1
3
Cc1cc(/C=N/Nc2nc(-c3ccc(F)cc3)cs2)c(C)n1-c1cc(Cl)ccc1Cl
-8

GET /value?item= CN(Cc1ccc(N2CCOCC2)cc1)Cc1c(O)ccc2ccncc12 &field=First screening IR (inhibition rate) returns -18

GET /value?item= O=C(Nc1nc2c(s1)CN(Cc1ccccc1)CC2)c1cc(-c2ccco2)[nH]n1 &field=First screening IR (inhibition rate) returns -10

GET /value?item= Cc1ccn2c(CNc3cc(C(N)=O)cc(F)c3C)cnc2c1 &field=First screening IR (inhibition rate) returns 33
